All figures here come from PubChem BioAssay (NCI).

Measured TGI accompanies every entry in the list below.
# Test system: M14 melanoma
# ASSAY_PROCEDURE: NCI tumour cell line growth inhibition, 48 h
ENDPOINT_LABEL: TGI (µM)

1) S=C1C(=Nc2ccccc2)N(c2ccccc2)/C(=N\c2cccc[n+]2Cc2ccccc2)N1c1ccccc1 | 27.5
2) CC/C=C/c1cc2c(cc1O)CCC1C2CC[C@@]2(C)C1CC[C@@H]2O (some centres undefined) | 12.2

====

# Test system: SF-295 CNS
# ASSAY_PROCEDURE: NCI tumour cell line growth inhibition, 48 h
ENDPOINT_LABEL: GI50

1. COc1ccc2nc(C)cc(Sc3nc4ccccc4s3)c2c1 | 2.48 µM
2. CN1CCN(CCCOc2ccc3nc(Nc4ccc(F)c(F)c4)ccc3c2)CC1 | 1.61 µM
3. Cc1ccc(S(=O)(=O)n2cc([C@@]3(O)C[C@H](CSC#N)OC3=O)c3ccccc32)cc1 | 16.1 µM
4. CCCCCCCC(=O)[O-].CCCCCCCC(=O)[O-].N.N.N.N.[Co+3].[O-][Cl+3]([O-])([O-])[O-] | > 100 µM
5. CC(C)=Cc1cc(C)c2ccc(C)c3c2c1C(C)=C(O)C3=O | 31.4 µM
6. COc1cc(F)c(F)cc1C(=O)c1cnc(NC2CCN(S(C)(=O)=O)CC2)nc1N | 2.9 µM
7. Cc1cc(=O)[nH]c(N/N=C/c2ccccc2O)n1 | 3.96 µM
8. O=C1CS/C(=N/S(=O)(=O)c2ccc(N3N=C4c5ccccc5CC4C3c3cccs3)cc2)N1C(=O)c1ccccc1 (stereo unspecified) | 31.7 µM
9. O=C1NC(=O)C(=Cc2cn(Cc3ccccc3)c3ccccc23)C(=O)N1 | 1.39 µM
10. COc1cc(OC)c2c(=O)cc(-c3ccccc3OCc3ccccc3)oc2c1OC | 4.65 µM
11. O=C(O)Cn1c2c(c3c1-c1ccccc1C3=O)C(=O)CCC2 | > 100 µM
12. FC(F)c1ncc(-c2ccc(C(F)(F)F)cc2)c(NC2CCCCCC2)n1 | > 10 µM
13. COc1cc(/C=C/C(=O)CC(=O)/C=C/c2cc(OC)c(O)c(OC)c2)cc(OC)c1O | 32.3 µM
14. CC1CCCC(C#N)(NOC2=NCCN2)C1 (stereo unspecified) | 31 µM
15. O=C(O)COc1ccc(OCC(=O)O)cc1 | 0.445 µM
16. Cc1nc(NS(=O)(=O)c2ccc(NCN3C(=O)c4ccccc4C3=O)cc2)oc1C | > 100 µM
